TEST_TARGET: JAK1 (Homo sapiens (Human), UniProt P23458)
Sequence (P23458 875-1153): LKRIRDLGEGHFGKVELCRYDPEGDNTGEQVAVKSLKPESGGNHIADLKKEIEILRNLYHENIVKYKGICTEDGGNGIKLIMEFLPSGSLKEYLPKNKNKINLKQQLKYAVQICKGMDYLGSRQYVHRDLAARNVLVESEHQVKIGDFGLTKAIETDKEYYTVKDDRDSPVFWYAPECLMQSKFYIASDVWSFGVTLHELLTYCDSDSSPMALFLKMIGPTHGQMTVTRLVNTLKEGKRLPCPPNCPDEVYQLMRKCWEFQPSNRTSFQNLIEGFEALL
METHOD: Purified kinase assay (Z'-LYTE), JAK1
Format: biochemical
RECORDED_CONDITIONS: Table 1; read-out: JAK1 IC50
Experimental: JAK and TYK2 tyrosine phosphorylation activity is measured using the Z′-LYTE™ Technology developed by Invitrogen Corporation (Carlsbad, Calif.). For JAK1, JAK2 and JAK3 the Z′-LYTE™ Kinase Assay Kit-Tyr6 Peptide (part number PV4122) was used. […] The Z′-LYTE™ biochemical assay employs a fluorescence resonance energy transfer (FRET) coupled-enzyme format and is based on the differential sensitivity of phosphorylated and non-phosphorylated peptides to proteolytic cleavage. […]
pIC50: −log10 of the molar value.
pIC50 listing for selected molecules.

Some molecules with recorded pIC50:
CCn1cc(Nc2cc(NCc3cccc4ccsc34)c(C(N)=O)nn2)cn1    6.00 to 7.00
NC(=O)c1nnc(Nc2cnccn2)cc1NCc1cccc(-n2ccnc2)c1    < 6.00
NC(=O)c1nnc(Nc2ccc(N3CCNCC3)cc2)cc1NCC1CCC1    < 6.00

What value of measured pIC50 is listed for "NC(=O)c1nnc(Nc2cc(F)c(N3CCOCC3)c(F)c2)cc1NCc1cccc(F)c1F" ?
< 6.00

Next molecule: CC(c1ccc(Nc2cc(NCc3cccc(F)c3)c(C(N)=O)nn2)cc1)S(C)(=O)=O (stereo not drawn)
6.00 to 7.00

One more molecule: "COc1cccc(CNc2cc(Nc3ccc(N4CCN(C(C)=O)CC4)cc3)nnc2C(N)=O)c1"
< 6.00
